Tested on: MS2 coat protein
assay_name: apparent Kd, MS2 coat protein; higher = weaker binding; RNA-MaP array; FMN 200 µM where present
condition_label: ligand present: flavin mononucleotide; designed as: ON switch for flavin mononucleotide
readout: apparent Kd (nM)
The figure you give is taken to be in nM; do not add the unit.

1. AUGGAUAUCACAGGAUAUGCCAGGGAUACCCUGGCAGAAGGGUGAUCCAUCCUAUGUAAAUACAUGAGGAUCACCCAUGUGUCC	43.6
2. CACACAUGAGGAUCACCCAUGUCGUGGGCGGAAAACUGUGCACAGGAUAUGGUGAAGGCAACUCACCAGAAGGGUGGUCAGGGA	55

In: Dear colleague, I am looking for the recorded apparent Kd of the following sequence: GGCUGCGAUGUGAAGGAUAUCCGCGUCUGGACAUGAGGAUCACCCAUGUAUGCUUGGAUCAUGCCGGAGAAGGUCACGAAUGAUU
Out: 16.6

In: Would you kindly repeat that for AACUUGCGCACAGGAUAUCCACGGAGCGGACGUGGAGAAGGGUGACAUGAGGAUCACCCAUGUACGUAAGUCUAGAUCACUUCC ?
Out: 19.1
